ASSAY_NAME: Proteinase K stability (compound remaining)
Type: in vitro ADME
CONDITION_SUMMARY: Tritirachium album (source organism of proteinase K); initial concentration 1.0 mM, 0.1 mg/ml proteinase K, 24 h; read-out: compound remaining after 24 h
Method: Both Nap-GFFY-G-KWYQNMIR (Comp. 1) and Nap-G^DF^DF^DY-G-KWYQNMIR (Comp. 2) could form hydrogels by heating and cooling, namely L-gel and D-gel (Fig. 1A–C). The ultrastructures of the L-gel and D-gel were both nanofibers (Fig. 1D and E). The mechanical properties of the L-gel and D-gel remained relatively constant (Fig. 1F and G). […] The CAC values of the AMG-P8, L-gel and D-gel were 354.91, 84.25 and 86.62 μM, respectively (Fig. 1I and J). […]
Square brackets hold non-standard residues; d marks the D form. Peptide text beside a SMILES is read from it. * marks the point of attachment. Acetyl(2-naphthyl) = O=C(Cc1ccc2ccccc2c1)*

COMPOUND	remaining at 24 h, 1 mM
CC[C@H](C)[C@H](NC(=O)[C@H](CCSC)NC(=O)[C@H](CC(N)=O)NC(=O)[C@H](CCC(N)=O)NC(=O)[C@H](Cc1ccc(O)cc1)NC(=O)[C@H](Cc1c[nH]c2ccccc12)NC(=O)[C@H](CCCCN)NC(=O)CNC(=O)[C@@H](Cc1ccc(O)cc1)NC(=O)[C@@H](Cc1ccccc1)NC(=O)[C@@H](Cc1ccccc1)NC(=O)CNC(=O)Cc1ccc2ccccc2c1)C(=O)N[C@@H](CCCNC(=N)N)C(=O)O [D-gel] ({Acetyl(2-naphthyl)}-G[dF][dF][dY]GKWYQNMIR-OH)	78.1%
CC[C@H](C)[C@H](NC(=O)[C@H](CCSC)NC(=O)[C@H](CC(N)=O)NC(=O)[C@H](CCC(N)=O)NC(=O)[C@H](Cc1ccc(O)cc1)NC(=O)[C@H](Cc1c[nH]c2ccccc12)NC(=O)[C@H](CCCCN)NC(=O)CNC(=O)[C@H](Cc1ccc(O)cc1)NC(=O)[C@H](Cc1ccccc1)NC(=O)[C@H](Cc1ccccc1)NC(=O)CNC(=O)Cc1ccc2ccccc2c1)C(=O)N[C@@H](CCCNC(=N)N)C(=O)O [L-gel] ({Acetyl(2-naphthyl)}-GFFYGKWYQNMIR-OH)	62.2%
